Quick list: composite z-score per entry.
# tgt: Dihydroorotate dehydrogenase (quinone), mitochondrial (Plasmodium falciparum (isolate 3D7)) (UniProt Q08210)
# Sequence (Q08210 whole entry, looked up): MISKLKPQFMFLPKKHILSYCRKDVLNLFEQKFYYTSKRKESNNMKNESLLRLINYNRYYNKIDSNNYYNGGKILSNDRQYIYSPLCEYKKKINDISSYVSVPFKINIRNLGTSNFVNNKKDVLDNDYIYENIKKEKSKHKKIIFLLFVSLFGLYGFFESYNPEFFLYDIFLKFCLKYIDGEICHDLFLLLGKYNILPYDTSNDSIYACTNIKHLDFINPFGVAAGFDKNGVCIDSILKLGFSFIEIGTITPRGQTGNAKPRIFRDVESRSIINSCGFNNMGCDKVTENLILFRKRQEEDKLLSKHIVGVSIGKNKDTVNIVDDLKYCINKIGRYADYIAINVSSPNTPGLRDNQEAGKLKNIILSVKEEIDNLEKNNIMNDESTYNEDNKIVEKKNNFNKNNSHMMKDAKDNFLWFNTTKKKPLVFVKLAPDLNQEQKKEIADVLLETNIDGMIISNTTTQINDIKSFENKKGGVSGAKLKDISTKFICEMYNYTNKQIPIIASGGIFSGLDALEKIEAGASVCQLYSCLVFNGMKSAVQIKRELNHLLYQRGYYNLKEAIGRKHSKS
# experimentSummary: PfDHODH enzyme inhibitors, primary screen, biochemical, C-terminal His tag, absorbance 600 nm (AID 1175);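 further: recombinant parasite enzyme with a five histidine tag at its C terminus; test concentration not given here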
# testParameters: DCIP absorbance 600 nm, higher = more signal, called active from +8 up or from −8 down
Please reply with the value in numeric form only.

| compound | quantitativeReadout |
| --- | --- |
| CCCC[C@@H](O)C1=C(C)C[C@H]2C(=O)N(C)C(=O)[C@H]2[C@H]1CO | 0.312 |
| C[N+](C)(C)CCCC[C@@H]1NC(=O)[C@@H]2C[C@H](C(=O)NCCCCCNC(=O)CS)[C@H](c3ccc(O)cc3)N2C1=O | -1.15 |
| C=C(COC)C(=O)CC[C@H](OC(=O)c1cccnc1)c1cccc(OCCO)c1 | -0.236 |

Query: Look at this compound and give its reported composite z-score. `O=C1N(CCS(=O)(=O)c2ccccc2)Cc2ccccc2[C@@H]2OC(c3ccc(OCCCO)cc3)=N[C@]12Cc1ccccc1`
Reply: 0.913

Query: Look at this compound and give its reported composite z-score. CCN(CC)c1ccc(N2CC=CC34O[C@@H]5C=CCOC(=O)[C@@H]5[C@H]3C(=O)N(C(C)CO)[C@@H]4C2=O)cc1 (some centres not stated)
Reply: -0.393

Query: Look at this compound and give its reported composite z-score. `COCCOC(=O)N1C(=O)[C@@]2(c3cc(C#CC4(O)CCCCCC4)ccc31)[C@H](c1ccc(O)cc1)N1[C@H](c3ccccc3)[C@H](c3ccccc3)OC(=O)[C@H]1[C@@H]2C(N)=O`
Reply: 0.194

Query: Look at this compound and give its reported composite z-score. `O=C(N1CCCCC1)[C@@]1(Cc2ccccc2)N=C(c2ccc(OCCCO)cc2)O[C@H]1c1ccccc1`
Reply: 0.31

====

# experimentSummary: S. cerevisiae RM11-1a growth modifiers, primary screen, strain RM11-1a, OD600, basal, 24 h (AID 1177);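 further: cultures grown under basal conditions with no added stressor; test concentration not given here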
# testParameters: OD600, 24 h, higher = more signal, called active from +8 up or from −8 down
parameterMeasured: z-score
Please reply with the value in numeric form only.

Worked set:
| molecule | quantitativeReadout |
| --- | --- |
| CO[C@H]1O[C@H](CO)[C@@H](OC(=O)CCc2ccccc2)[C@@H]2OC(=O)[C@H](Cc3ccccc3)C/C=C/C[C@@H](Cc3ccccc3)C(=O)O[C@@H]12 | -0.103 |
| O=C1O[C@@H](c2ccccc2)[C@@H](c2ccccc2)N2[C@@H](c3ccc(OCCO)cc3)[C@]3(C(=O)Nc4ccc(C#CC5(O)CCCCCC5)cc43)[C@@H](C(=O)NC[C@H](O)c3ccccc3)[C@H]12 | 2.1 |
| O=C(NCc1ccccc1)[C@@H]1c2ccccc2C(=O)N(Cc2ccccc2Cl)[C@H]1c1ccc(CO)cc1 | -1.44 |
| CC(C)C(CO)N1C(=O)[C@@H]2C3C(=O)OCCC/C=C\[C@H]3OC23C=CCN(C(C)C)C(=O)[C@@H]13 (stereo partly specified) | -1.36 |
| C[C@@H](OCc1ccccc1)C1NC(=O)[C@@]23C(=O)N[C@@H](Cc4ccccc4)C2[C@H](C)[C@@]2(C)O[C@H]2C3/C=C/C/C=C\CNC(=O)[C@@H]2CCCN2C1=O (stereo partly specified) | -0.421 |

Consider the additional molecule presented here.
Query: Look at this molecule and give its reported z-score. `CC(C)NC(=O)[C@@H]1c2ccccc2C(=O)N(Cc2cc(F)cc(C(F)(F)F)c2)[C@H]1c1ccc(CO)cc1`
Reply: -0.284
